B1: LINE1-full (parent)
chain: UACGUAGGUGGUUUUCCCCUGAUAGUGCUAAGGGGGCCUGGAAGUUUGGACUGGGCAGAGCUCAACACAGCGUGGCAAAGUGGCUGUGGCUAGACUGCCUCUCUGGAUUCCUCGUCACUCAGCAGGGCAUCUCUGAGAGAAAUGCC

Variants of: B1
Assay: self-cleavage, relative activity (ratio to wild type); higher = more cleavage; in vitro, sequencing; the parent is a self-cleaving ribozyme

| mutation_name | self-cleavage |
| --- | --- |
| A59U C71U | 0.64 |
| A57U U87C | 0.04 |
| U85C U108C | 0.22 |
| C116U A142G | 1.27 |
| A121G U143C | 1.69 |
| U47A A64C | 0.25 |
| A6G U102C | 0.68 |
| C61A U104C | 0.04 |
| C19U U91C | 0.62 |
| U15G U119A | 1.01 |
| A121U C133U | 1.8 |
| C19U U45A | 1.43 |
| U26A A107G | 1.06 |
| A57G U104A | 0.3 |
| C28A G36A | 1.9 |
| G54A U115C | 1.27 |
| G21A A129U | 1.17 |
| G36A U81A | 2.04 |
| U23C G34A | 1.26 |
| G114A A121U | 1.37 |
| G33U C103U | 1.15 |
| G127A C145A | 1.32 |
| U104A U143A | 0.88 |
| A79U G114A | 1.79 |
| G70C U102A | 0.07 |
| G53A G74A | 1.04 |
| U134C U143A | 1.37 |
| G4C A77G | 2.9 |
| A65G G88A | 0.02 |
| U85A A141G | 0.07 |
| A69C C76U | 0.08 |
| U12G U73C | 1.54 |
| G4A U14A | 0.75 |
| U119G | 1.63 |
| U45C U130A | 1.66 |
| U1A U26C | 1.93 |
| A59G A129G | 0.07 |
| A6G G25U | 0.69 |
| G25A G35A | 0.91 |
| U81C U85C | 0.12 |
| A69G C113A | 0.48 |
| A94U A117U | 0.41 |
| U119C A138U | 1.67 |
| A30U G114C | 1.25 |
| C103U A124G | 1.56 |
| A107G U134C | 1.33 |
